# target desc: A₂ receptor (Rattus norvegicus)
# Construct: from tissue; host or cells: rat corpus striatum membrane preparation
# assay procedure: Adenosine A₂ receptor binding test (³H-NECA binding)
# test conditions: 10⁻⁴M; ³H-NECA binding, rat corpus striatum; read-out: Inhibition (%) A₂ Receptor
outcome measure: inhibition at 100 µM (%)

compound="COc1cccc(/C=C/c2nc3c(=O)n(C)c(=O)n(C)c3[nH]2)c1OC [Compound 25, (E)-8-(2,3-Dimethoxystyryl)theophylline]" quantitative_result=70
compound=CCn1c(=O)c2c(nc(/C=C/c3ccc(F)c(F)c3)n2C)n(CC)c1=O quantitative_result=96
compound=COc1ccc(/C=C/c2nc3c(c(=O)n(C)c(=O)n3C)n2C)c(Cl)c1OC quantitative_result=83
compound=CCn1c(=O)c2[nH]c(/C=C/c3ccc(OC)c(Br)c3)nc2n(CC)c1=O quantitative_result=81
compound=CCn1c(=O)c2c(nc(/C=C/c3cc(OC)c(OC)cc3Br)n2C)n(CC)c1=O quantitative_result=84
compound=Cn1c(=O)c2[nH]c(/C=C/c3ccc4c(c3)OCO4)nc2n(C)c1=O quantitative_result=81
compound=COc1ccc(/C=C/c2nc3c([nH]2)c(=O)n(C)c(=O)n3C)c(Cl)c1OC quantitative_result=91
compound="COc1ccc(/C=C/c2nc3c(c(=O)n(C)c(=O)n3C)n2C)c(OC)c1 [Compound 28, (E)-8-(2,4-Dimethoxystyryl)caffeine]" quantitative_result=99

====

# Tested on: dd-strain male mice
# assay procedure: Acute toxicity test (minimum lethal dose, oral)
# Assay type: in vivo
# test conditions: oral administration, three mice per group, mortality seven days after administration
Below, each entry is listed alongside its reported MLD.
outcome measure: MLD

molecule="CCn1c(=O)c2[nH]c(/C=C/c3cc4c(cc3Br)OCO4)nc2n(CC)c1=O [Compound 95]" result="> 100 mg/kg"
molecule="COc1ccc(/C=C/c2nc3c(c(=O)n(C)c(=O)n3C)n2C)c(OC)c1OC [Compound 20, (E)-8-(2,3,4-Trimethoxystyryl)caffeine]" result="> 300 mg/kg"
molecule="CCn1c(=O)c2c(nc(/C=C/c3cccc(Oc4ccccc4)c3)n2C)n(CC)c1=O [Compound 120]" result="> 100 mg/kg"
molecule="CCn1c(=O)c2[nH]c(/C=C/c3cc(OC)c4c(c3)OCO4)nc2n(CC)c1=O [Compound 106]" result="> 100 mg/kg"

====

# target desc: A₂ receptor (Rattus norvegicus, UniProt P30543)
# Construct: from tissue; host or cells: rat corpus striatum membrane preparation
# Sequence (P30543 whole entry): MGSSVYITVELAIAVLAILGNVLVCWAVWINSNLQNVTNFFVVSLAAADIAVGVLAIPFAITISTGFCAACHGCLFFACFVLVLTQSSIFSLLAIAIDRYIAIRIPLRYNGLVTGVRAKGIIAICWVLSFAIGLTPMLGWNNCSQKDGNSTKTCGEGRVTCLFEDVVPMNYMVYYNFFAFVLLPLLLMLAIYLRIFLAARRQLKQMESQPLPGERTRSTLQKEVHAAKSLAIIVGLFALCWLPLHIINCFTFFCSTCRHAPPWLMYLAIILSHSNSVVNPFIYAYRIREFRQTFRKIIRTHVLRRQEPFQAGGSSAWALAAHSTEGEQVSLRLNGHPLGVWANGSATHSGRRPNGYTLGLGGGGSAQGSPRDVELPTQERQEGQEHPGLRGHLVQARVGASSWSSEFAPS
# assay procedure: Adenosine A₂ receptor binding test (³H-CGS 21680 binding)
# test conditions: 10^-6M; [^3H]CGS 21680 was used, rat corpus striatum; read-out: A2 Receptor Inhibition (%)
// class assignment uses inhibition at 1 µM with these ranges: one (below 80%), two (80% to below 90%), three (90% or more)

compound="CCn1c(=O)c2c(nc(/C=C/c3ccc(OCc4ccccc4)cc3)n2C)n(CC)c1=O [Compound 113]" target_desc="A₂ receptor (Rattus norvegicus, UniProt P30543)" discrete_label=one
compound="CCn1c(=O)c2c(nc(/C=C/c3cccc(OC)c3[N+](=O)[O-])n2C)n(CC)c1=O [Compound 64]" target_desc="A₂ receptor (Rattus norvegicus, UniProt P30543)" discrete_label=three
compound="CCn1c(=O)c2[nH]c(/C=C/c3cccc(Br)c3)nc2n(CC)c1=O [Compound 91]" target_desc="A₂ receptor (Rattus norvegicus, UniProt P30543)" discrete_label=one
compound="CCn1c(=O)c2[nH]c(/C=C/c3cccc(C(F)(F)F)c3)nc2n(CC)c1=O [Compound 93]" target_desc="A₂ receptor (Rattus norvegicus, UniProt P30543)" discrete_label=two
compound="CCn1c(=O)c2c(nc(/C=C/c3ccc(O)c(O)c3)n2C)n(CC)c1=O [Compound 110]" target_desc="A₂ receptor (Rattus norvegicus, UniProt P30543)" discrete_label=three
compound="CCn1c(=O)c2[nH]c(/C=C/c3ccc(OC)c(F)c3)nc2n(CC)c1=O [Compound 102]" target_desc="A₂ receptor (Rattus norvegicus, UniProt P30543)" discrete_label=three
compound="CCn1c(=O)c2c(nc(/C=C/c3cccc(OC)c3)n2C)n(CC)c1=O [Compound 40]" target_desc="A₂ receptor (Rattus norvegicus, UniProt P30543)" discrete_label=three
compound="CCn1c(=O)c2c(nc(/C=C/c3ccc(-c4ccccc4)cc3)n2C)n(CC)c1=O [Compound 101]" target_desc="A₂ receptor (Rattus norvegicus, UniProt P30543)" discrete_label=one
compound="CCn1c(=O)c2[nH]c(/C=C/c3cc(F)cc(F)c3)nc2n(CC)c1=O [Compound 87]" target_desc="A₂ receptor (Rattus norvegicus, UniProt P30543)" discrete_label=one
compound="CCCCOc1ccc(/C=C/c2nc3c([nH]2)c(=O)n(CC)c(=O)n3CC)cc1 [Compound 41]" target_desc="A₂ receptor (Rattus norvegicus, UniProt P30543)" discrete_label=one
compound="CCn1c(=O)c2[nH]c(/C=C/c3ccc(OCOC)cc3)nc2n(CC)c1=O [Compound 81]" target_desc="A₂ receptor (Rattus norvegicus, UniProt P30543)" discrete_label=three
compound="CCn1c(=O)c2c(nc(/C=C/c3cc(C(F)(F)F)cc(C(F)(F)F)c3)n2C)n(CC)c1=O [Compound 86]" target_desc="A₂ receptor (Rattus norvegicus, UniProt P30543)" discrete_label=one
compound="CCn1c(=O)c2[nH]c(/C=C/c3ccc(C)cc3)nc2n(CC)c1=O [Compound 43]" target_desc="A₂ receptor (Rattus norvegicus, UniProt P30543)" discrete_label=one
compound="CCn1c(=O)c2c(nc(/C=C/c3ccc(C(F)(F)F)cc3)n2C)n(CC)c1=O [Compound 74]" target_desc="A₂ receptor (Rattus norvegicus, UniProt P30543)" discrete_label=two
compound="CCn1c(=O)c2c(nc(/C=C/c3cccc([N+](=O)[O-])c3)n2C)n(CC)c1=O [Compound 90]" target_desc="A₂ receptor (Rattus norvegicus, UniProt P30543)" discrete_label=three
compound="CCn1c(=O)c2c(nc(/C=C/c3cccc(C(F)(F)F)c3)n2C)n(CC)c1=O [Compound 94]" target_desc="A₂ receptor (Rattus norvegicus, UniProt P30543)" discrete_label=three
compound="CCCCOc1ccc(/C=C/c2nc3c(c(=O)n(CC)c(=O)n3CC)n2C)cc1 [Compound 42]" target_desc="A₂ receptor (Rattus norvegicus, UniProt P30543)" discrete_label=two
compound="CCn1c(=O)c2[nH]c(/C=C/c3cccc(F)c3C)nc2n(CC)c1=O [Compound 108]" target_desc="A₂ receptor (Rattus norvegicus, UniProt P30543)" discrete_label=three
compound="CCn1c(=O)c2c(nc(/C=C/c3cccc(F)c3C)n2C)n(CC)c1=O [Compound 109]" target_desc="A₂ receptor (Rattus norvegicus, UniProt P30543)" discrete_label=three
compound="CCn1c(=O)c2[nH]c(/C=C/c3cc(OC)c4c(c3)OCO4)nc2n(CC)c1=O [Compound 106]" target_desc="A₂ receptor (Rattus norvegicus, UniProt P30543)" discrete_label=three
compound="CCn1c(=O)c2c(nc(/C=C/c3ccccc3F)n2C)n(CC)c1=O [Compound 98]" target_desc="A₂ receptor (Rattus norvegicus, UniProt P30543)" discrete_label=three
compound="CCn1c(=O)c2[nH]c(/C=C/c3ccccc3F)nc2n(CC)c1=O [Compound 97]" target_desc="A₂ receptor (Rattus norvegicus, UniProt P30543)" discrete_label=two
compound="CCn1c(=O)c2[nH]c(/C=C/c3ccc(Br)cc3)nc2n(CC)c1=O [Compound 77]" target_desc="A₂ receptor (Rattus norvegicus, UniProt P30543)" discrete_label=one
compound="CCn1c(=O)c2c(nc(/C=C/c3ccc(C)cc3)n2C)n(CC)c1=O [Compound 44]" target_desc="A₂ receptor (Rattus norvegicus, UniProt P30543)" discrete_label=three
compound="CCn1c(=O)c2c(nc(/C=C/c3ccc(OCCCCBr)cc3)n2C)n(CC)c1=O [Compound 114]" target_desc="A₂ receptor (Rattus norvegicus, UniProt P30543)" discrete_label=two
compound="CCn1c(=O)c2[nH]c(/C=C/c3ccc(F)cc3)nc2n(CC)c1=O [Compound 83]" target_desc="A₂ receptor (Rattus norvegicus, UniProt P30543)" discrete_label=one
compound="CCn1c(=O)c2c(nc(/C=C/c3ccc(F)cc3)n2C)n(CC)c1=O [Compound 84]" target_desc="A₂ receptor (Rattus norvegicus, UniProt P30543)" discrete_label=three
compound="CCn1c(=O)c2c(nc(/C=C/c3ccc(OC)c(F)c3)n2C)n(CC)c1=O [Compound 103]" target_desc="A₂ receptor (Rattus norvegicus, UniProt P30543)" discrete_label=three
compound="CCn1c(=O)c2c(nc(/C=C/c3ccc(F)c(Cl)c3)n2C)n(CC)c1=O [Compound 105]" target_desc="A₂ receptor (Rattus norvegicus, UniProt P30543)" discrete_label=three
